B1: C9orf9 (parent)
chain: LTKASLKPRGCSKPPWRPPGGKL

- Variants of: B1
- protocol notes: protein stability index of a GFP-peptide fusion (GPS, HEK-293T) (PSI 1-6); higher = more stable;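 note: lentivirally expressed fusions sorted by FACS into six bins by GFP to DsRed ratio, PSI derived from sequencing read proportions per bin multiplied by bin number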
- test parameters: c terminus: native

{"mutation code": "L6P", "protein stability index": 1.9}
{"mutation code": "R9M", "protein stability index": 2.33}
{"mutation code": "P18Y", "protein stability index": 2.86}
{"mutation code": "G21P", "protein stability index": 2.03}
{"mutation code": "S5T", "protein stability index": 2.08}
{"mutation code": "R9T", "protein stability index": 1.45}
{"mutation code": "L6I", "protein stability index": 1.37}
{"mutation code": "G20D", "protein stability index": 4.64}
{"mutation code": "T2N", "protein stability index": 2.21}
{"mutation code": "T2S", "protein stability index": 2.59}
{"mutation code": "P15E", "protein stability index": 3.93}
{"mutation code": "K22S", "protein stability index": 2.67}
{"mutation code": "G10W", "protein stability index": 2.02}
{"mutation code": "G10A", "protein stability index": 2.74}
{"mutation code": "R17V", "protein stability index": 3.35}
{"mutation code": "K3V", "protein stability index": 2.86}
{"mutation code": "R17W", "protein stability index": 3.47}
{"mutation code": "L1S", "protein stability index": 2.78}
{"mutation code": "W16G", "protein stability index": 2.29}
{"mutation code": "K13Q", "protein stability index": 2.3}
{"mutation code": "K7T", "protein stability index": 2.25}
{"mutation code": "R9E", "protein stability index": 1.9}
{"mutation code": "R17Q", "protein stability index": 4.16}
{"mutation code": "S5W", "protein stability index": 3.95}
{"mutation code": "R9G", "protein stability index": 1.37}
{"mutation code": "S5N", "protein stability index": 1.99}
{"mutation code": "K7G", "protein stability index": 1.51}
{"mutation code": "P19R", "protein stability index": 2.6}
{"mutation code": "S12V", "protein stability index": 2.52}
{"mutation code": "K13S", "protein stability index": 2.62}
{"mutation code": "P8W", "protein stability index": 4.77}
{"mutation code": "P14V", "protein stability index": 2.36}
{"mutation code": "P19G", "protein stability index": 3.44}
{"mutation code": "A4N", "protein stability index": 2}
{"mutation code": "P19H", "protein stability index": 2.23}
